Cited source: patent US20260258035A1

- ASSAYED_TARGET: PARG (Homo sapiens)
- Sequence (Q86W56 whole entry): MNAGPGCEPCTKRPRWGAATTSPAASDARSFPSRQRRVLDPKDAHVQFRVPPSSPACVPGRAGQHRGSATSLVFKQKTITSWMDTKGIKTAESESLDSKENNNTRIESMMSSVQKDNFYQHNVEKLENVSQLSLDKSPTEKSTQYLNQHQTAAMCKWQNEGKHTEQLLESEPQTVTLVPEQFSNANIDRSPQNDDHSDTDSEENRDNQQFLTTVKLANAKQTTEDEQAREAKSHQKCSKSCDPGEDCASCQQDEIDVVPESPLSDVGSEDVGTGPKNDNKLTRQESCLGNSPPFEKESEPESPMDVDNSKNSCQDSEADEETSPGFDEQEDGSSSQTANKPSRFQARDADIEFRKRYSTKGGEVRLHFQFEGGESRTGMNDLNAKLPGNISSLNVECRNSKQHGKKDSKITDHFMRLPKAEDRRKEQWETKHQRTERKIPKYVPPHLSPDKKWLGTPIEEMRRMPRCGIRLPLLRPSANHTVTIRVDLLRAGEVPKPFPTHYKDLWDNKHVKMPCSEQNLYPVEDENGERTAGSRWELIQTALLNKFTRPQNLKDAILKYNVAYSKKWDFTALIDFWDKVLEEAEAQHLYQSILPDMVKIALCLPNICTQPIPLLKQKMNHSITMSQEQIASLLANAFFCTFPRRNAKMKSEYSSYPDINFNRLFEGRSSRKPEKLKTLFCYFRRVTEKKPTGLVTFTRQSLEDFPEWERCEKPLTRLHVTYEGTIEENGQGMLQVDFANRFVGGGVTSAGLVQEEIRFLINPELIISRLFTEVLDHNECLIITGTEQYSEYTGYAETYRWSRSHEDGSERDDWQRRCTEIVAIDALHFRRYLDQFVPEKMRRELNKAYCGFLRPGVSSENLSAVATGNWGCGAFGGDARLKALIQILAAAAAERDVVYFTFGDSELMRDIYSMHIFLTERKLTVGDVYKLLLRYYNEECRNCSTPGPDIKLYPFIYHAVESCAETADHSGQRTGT
- PROTOCOL_DESCRIPTION: Biochemical assay (PARG, TFMU-ADPr substrate)
- STATED_CONDITIONS: PARG, TFMU-ADPr substrate
REPORTED_METRIC: IC50 (nM)

a = CC(C)C(=O)N1CCN(c2cc(S(=O)(=O)NC3(COC(F)(F)F)CC3)cn3c(-c4nnc(C(F)F)s4)ncc23)CC1
b = C[C@@H]1CN(c2cc(S(=O)(=O)NC3CC3)cn3c(-c4nnc(C(F)F)s4)nnc23)CCN1C(=O)C1(C)CC1
c = CC1(NS(=O)(=O)c2cc(N3CCN(C(=O)C4CC(=O)N4)CC3)c3cnc(-c4nnc(C(F)(F)F)s4)n3c2)CC1 (stereo not shown)
d = CC(C)C(=O)N1CCN(c2cc(S(=O)(=O)NC34CC(C3)C4)cn3c(-c4nnc(C(F)F)s4)ncc23)CC1
Please list these molecules in decreasing order of IC50. Provide your answer as the labels ordered per the instruction.
b, a, d, c
(b: 72.4 nM, a: 38.4 nM, d: 11.4 nM, c: 5.41 nM)
